# credit: patent US20250049831A1

test system: COVID-19 virus Delta variant; assay type: cell-based
Collected COVID-19 Delta virus SI values appear next to each entry.
Answer field: number only, no words.

The examples below pair each entry with its known result.
[
  {
    "Compound": "COc1ccc(C2OCC3C(c4ccc(OC)c(OC)c4)OCC23)cc1O (stereo not shown)",
    "COVID-19 Delta virus SI": 2.11
  },
  {
    "Compound": "COc1ccc(C2OCC3C(c4ccc(OC(=O)C(C)c5ccc(CC(C)C)cc5)c(OC)c4)OCC23)cc1OC (stereo not shown)",
    "COVID-19 Delta virus SI": 1.79
  },
  {
    "Compound": "COc1cc(O)cc(C2OCC3C(c4ccc(OC5OC(CO)C(O)C(O)C5O)c(OC)c4)OCC23)c1 (stereo not shown)",
    "COVID-19 Delta virus SI": 7.14
  }
]

IN: State its COVID-19 Delta virus SI: COc1ccc([C@H]2OC[C@H]3[C@@H]2CO[C@H]3c2ccc(O[C@@H]3O[C@H](CO)[C@@H](O)[C@H](O)[C@H]3O)c(OC)c2)cc1OC
OUT: 6.86
